// values below are reported melting point

| MOLECULE | melting point |
| --- | --- |
| O=[N+]([O-])C=C1SCCCN1S(=O)(=O)Cc1ccccc1 | 140 to 141 °C |
| CC(c1ccccc1)N(C=O)C(C#N)C=O (single isomer, unassigned; (+)) | 245 °C |
| CN(Cc1ccc(-c2ccc(OCC#N)c(Br)c2)cc1)C(=O)c1cn(C)c2ccccc12 | 202 to 206 °C |
| CCCn1nc2c(N)nc3ccccc3c2c1CC(C)(C)S(C)(=O)=O | 202 to 204 °C |
| COc1cc2c(cc1OC)N(C)C(=O)CN=C2c1cccc(CO)c1 | 143 to 146 °C |
| O=C(O)N1C=NN2c3cccnc3N(c3cccc(Cl)c3)CC12 (stereo not given) | 213 to 216 °C |
| COc1cccc(COc2ccc(S(=O)(=O)c3ccc(C)nc3Nc3c(C)cc(C)cc3C)cc2)c1OC | 124 to 126 °C |
| Cc1cccc(C(=O)C(=O)c2ccccc2)c1C | 61.5 to 62.5 °C |
| CCCCNc1c2c(nc3c1cnn3CC)C(=O)c1ccccc1CC2 | 181 to 183 °C |
| N#Cc1ccc(N)cc1Sc1ccccc1 | 69 to 71 °C |

====

Non-standard residues stand in square brackets, D forms with d. Residues, ends and D or L forms follow the SMILES beside them. ξ: configuration not given here. *: point of attachment. ξF = NC(Cc1ccccc1)C(=O)O; Boc = CC(C)(C)OC(=O)*
// values below are reported melting point

| COMPOUND | melting point |
| --- | --- |
| Cc1ccc(C(=O)Nc2ccccc2C(N)=O)cc1 | 206 to 208 °C |
| CCCC=Cc1c(C(C)C)nc(C(C)C)c(CO)c1-c1cccc(Cl)c1 | 101 to 104 °C |
| COc1ccc(C2=NN(c3ccc(NS(=O)(=O)c4ccc(C)cc4)cc3)C(=O)[C@H]3CC=CC[C@@H]23)cc1OC (relative stereo) | 229 to 230 °C |
| N#Cc1cc([N+](=O)[O-])ccc1N1CCC(N2CCCCC2)CC1 | 134 to 135 °C |
| COC(=O)c1c(C)nc2c(c1N)c1ccccc1n2C | 98 to 100 °C |
| CCn1cc(C(=O)O)c(=O)c2cc(F)c(N3CCC(N)C3)c(C)c21 (stereo not given) | 187 to 194 °C |
| CCOC(=O)c1sc(Cl)nc1-c1ccc([N+](=O)[O-])cc1 | 146 to 148 °C |
| COc1ccc(-c2nc(-c3ccccc3)c3ncc(Cl)cc3n2)cc1 | 193 to 194 °C |
| CCOc1ccc(-c2ccc3c(c2)C=C(C(=O)Nc2ccc(CN(C)C4CCOCC4)cc2)CCS3=O)cc1 (stereo not given) | 192 to 195 °C |
| Cc1oc(-c2ccccc2)nc1COc1ccc(COc2nn(Cc3ccccc3)cc2CCC(=O)O)cn1 | 130 to 131 °C |
| CCCCNC(=O)Nc1sc2c(c1C#N)CCCC2 | 170 to 171 °C |
| COc1ccc(C2CC(=O)N(Cc3ccc4cc(F)ccc4n3)C2)cc1OC1CCCC1 (stereo not given) | 65 to 68 °C |
| NS(=O)(=O)c1ccc(NN=C2C(=O)Nc3cc4c(cc32)OCO4)cc1 | > 220 °C |
| COc1cc(Br)c(OC)c(CC(=O)O)c1 | 62 to 65 °C |
| CC(C)CCOC(=O)c1cccc(-c2cn(C)cc(-n3cccn3)c2=O)c1 | 115 to 118 °C |
| COC(=O)C1Oc2cc(Cl)ccc2C(C)(c2ccccc2)O1 (stereo not given) | 144 °C |
| CC(=O)Nc1sc(-c2ccc(F)cc2)cc1C(N)=O | 230 to 233 °C |
| COc1cc(C=O)c(OC)cc1C | 83 °C |
| c1ccc(OCCSCc2ncc(-c3ccc(OCCN4CCCCCC4)cc3)o2)cc1 | 35 to 38 °C |
| Cc1nc(NC(=O)CCCc2ccccc2)sc1C(=O)NCc1ccccc1 | 45 to 46 °C |
| C=CS(=O)(=O)c1ccc(NC(C)=O)cc1 | 122 °C |
| CCCn1nc(C2CC2)c(C(N)=O)c1Cc1ccc(-c2ccccc2S(=O)(=O)NC(=O)c2ccccc2)cc1 | 187 to 191 °C |
| CC(C)c1nc(N)cc(=O)[nH]1 | 229 to 230 °C |
| CCOC(=O)c1cc(=O)c2c(OCC(O)COc3ccc(Cl)cc3)cccc2o1 (stereo not given) | 98 to 100 °C |
| CC1(C)COc2cc(Br)ccc2C(O)(c2ccccn2)C1 (stereo not given) | 110 °C |
| CC(=NOCCOc1ccc(CC2SC(=O)NC2=O)cc1)c1ccc(O)nc1 (stereo not given) | 240 to 242 °C |
| CNC(=O)C(Cc1ccccc1)NC(=O)CNC(=O)OC(C)(C)C (stereo not drawn) (Boc-Gly-[ξF]-NHMe) | 158 to 160 °C |
| O=C1OCc2c1oc1c(F)cccc1c2=O | 164 °C |
| C=Cc1c(CC)nc(CC)c(CO)c1-c1ccccc1 | 84 to 85 °C |
| CCCN(C(=O)OC(C)(C)C)C1CC=C(c2c[nH]c3cc([N+](=O)[O-])ccc23)CC1 (stereo not given) | 214 to 216 °C |
| c1ccc(CSc2nnc(-c3ccc4c(c3)CCO4)o2)cc1 | 148 to 149 °C |
| c1ccc2c(Nc3ccc4[nH]ncc4c3)nc(-c3ccc4c(c3)CCO4)nc2c1 | 267 to 272 °C |
| O=C1Cc2ccccc2N1NCCCc1ccncc1F | 114 to 116 °C |
| O=C(O)c1ccc(CNC(=O)C2Cc3ccccc3N2S(=O)(=O)c2ccc(-c3cccc(C(F)(F)F)c3)cc2)cc1 (stereo not given) | 120 °C |
| Cc1c(C(=O)Nc2ccc(N3CCN(C4CCOCC4)CC3)c(C#N)c2)cnn1-c1cccc(Cl)c1 | 230 °C |
| Cc1cc(CC(=O)OC(C)(C)C)ccc1NC(=O)Nc1ccccc1F | 89 to 91 °C |
| CC(C)(C=NO)C1CCN(CC#Cc2cc(C(F)(F)F)cc(C(F)(F)F)c2)CC1 | 63 to 65 °C |
| O=C(Nc1ccccc1)NC1CCN(Cc2ccccc2)CC1 | 161 to 162 °C |
| OC1CCN(CC(O)c2cc(-c3ccccc3)on2)CC1 (stereo not given) | 117 to 119 °C |
| CCOC(=O)C1=C(C)NC(C#N)=C(C(=O)OCC)C1c1cccc([N+](=O)[O-])c1 (stereo not given) | 174 to 177 °C |

====

READOUT_LABEL: melting point

| MOLECULE | RECORDED_RESULT |
| --- | --- |
| O=C1CCCC2=C1C(c1ccc(F)cc1O)C1=C(CCS1)N2 (stereo unspecified) | > 250 °C |
| CCOC(=O)c1cnoc1-c1ccc(Cl)c(Br)c1 | 109 to 110 °C |
| Cn1c(=O)c2c(ncn2CCCN2CCC(C(=O)c3ccc(F)cc3)CC2)n(C)c1=O | 114 to 119 °C |
| CCCCCCCCCc1c(Cl)nc(-c2ccc(OC)c(F)c2)nc1Cl | 59 to 60 °C |
| O=C1CCCc2cc(F)cc(Sc3ccccc3)c21 | 112 to 113 °C |
| CCOC(=O)c1cc(-c2csc(C(=O)OCC)n2)[nH]n1 | 104 to 106 °C |
| Cc1nn(C)c(C(=O)C(C#N)c2ccc(C(C)(C)C)cc2)c1C (stereo unspecified) | 178 °C |
| CC(=O)Nc1ccc(S(=O)(=O)c2cccc3cnccc23)cc1 | 240 to 244 °C |
| O=C(C#Cc1ccncc1)c1ccccc1 | 74 to 75 °C |
| CNc1nc2c(s1)C(=O)CC(C)(C)C2 | 217 to 218 °C |
| CC(=O)N(C(C)=O)c1nc2n(n1)Cc1ccccc1-2 | 174 to 176 °C |
| [N-]=[N+]=Nc1nc(-c2ccccc2)nc(-c2ccccc2)n1 | 115 to 117 °C |
| COc1ccc(NC(=O)CCc2ccc(-c3c(C)sc4nc(=NS(=O)(=O)c5ccc(C)cc5)sn34)cc2)cc1OC | 203 to 204 °C |
| COc1ccc(C[C@@H]2COc3ccc(OCc4ccc5ccccc5n4)cc3[C@@H]2O)cc1C(=O)O (relative stereo) | 167 to 169 °C |
| CC1CC2Oc3ccc(Cl)cc3C(=O)N2O1 (stereo unspecified) | 147 to 151 °C |
| COc1ccc(S(=O)(=O)Cl)c2c3ccccc3n(C=O)c12 | 201 to 203 °C |
| CC(=O)c1cc2c(s1)SCCc1cc(=O)n(-c3ccc(Cl)cc3)nc1-2 | 248 to 250 °C |
| CCCOC(=O)Oc1ccc(-c2nc3c(N)nc(N)nc3nc2N)cc1 | 302 to 308 °C |
| CCOC(=O)c1c(C(F)(F)F)nc(C(F)(F)F)c(C)c1OCC | 72.5 to 74 °C |
| CCC(=O)CC(C(C(=O)CC)c1ccc([N+](=O)[O-])cc1)[N+](=O)[O-] (stereo unspecified) | 61.5 to 65.6 °C |
| CCOCc1nc2c(N)nc(C)cc2n1CCCCN | 108 to 111 °C |

Values were extracted from a melting point compilation (Tetko et al.; mined from patent text by program, amines drawn as free bases though some values may be those of a salt).
